- Tested on: K562
- test.name: Anticancer activity against human K562 cells assessed as cell growth at 10^-5 M after 48 hrs by SRB assay
- Type: functional
- applied.conditions: K562, 48 h, read-out: Activity
measurement.label: growth at 10 µM (%)
Give just the number in %; leave the unit off.

O=C(NCCNc1nccc(-c2c(-c3cccc(O)c3)nc3sccn23)n1)Nc1cc(C(F)(F)F)cc(C(F)(F)F)c1
72.7
COc1cccc(-c2nc3sccn3c2-c2ccnc(NCCNC(=O)c3ccccc3O)n2)c1
59.4
O=C(NCCNc1nccc(-c2c(-c3cccc(O)c3)nc3sccn23)n1)Nc1cccc(C(F)(F)F)c1
70.6
COc1cccc(-c2nc3sccn3c2-c2ccnc(NCCNC(=O)Nc3ccccc3)n2)c1
99.4

Let us examine a further case.
Data request: I'd like to know its growth at 10 µM. The compound in question is COc1cccc(-c2nc3sccn3c2-c2ccnc(NCCNC(=O)c3ccccc3)n2)c1
Data returned: 67.5

====

Recorded measurements of growth at 10 µM, one per entry
- Tested on: OVCAR-3
- test.name: Anticancer activity against human OVCAR3 cells assessed as cell growth at 10^-5 M after 48 hrs by SRB assay
- Assay type: functional
- applied.conditions: OVCAR-3, 48 h, read-out: Activity

O=C(NCCNc1nccc(-c2c(-c3cccc(O)c3)nc3sccn23)n1)c1cccc(C(F)(F)F)c1
89.8%

Data request: Param item = O=C(NCCNc1nccc(-c2c(-c3cccc(O)c3)nc3sccn23)n1)c1cc(C(F)(F)F)cc(C(F)(F)F)c1 ; retrieve measured growth at 10 µM.
Data returned: 108%

Data request: // repeat for O=C(NCCNc1nccc(-c2c(-c3cccc(O)c3)nc3sccn23)n1)c1ccc(N2CCOCC2)c(C(F)(F)F)c1 and report
Data returned: 89.1%

====

- Test system: SK-OV-3
- test.name: Anticancer activity against human SKOV3 cells assessed as cell growth at 10^-5 M after 48 hrs by SRB assay
- Type: functional
- applied.conditions: SK-OV-3, 48 h, read-out: Activity
measurement.label: growth at 10 µM (%)
Quick reminder: number only, in %, skip the unit.

Data request: Request: growth at 10 µM, test system SK-OV-3, entry O=C(NCCNc1nccc(-c2c(-c3cccc(O)c3)nc3sccn23)n1)c1cccc(C(F)(F)F)c1
Data returned: 84.2

Data request: Would you mind doing O=C(NCCNc1nccc(-c2c(-c3cccc(O)c3)nc3sccn23)n1)c1ccccc1O as well?
Data returned: 60.5

Data request: Thanks! And COc1cccc(-c2nc3sccn3c2-c2ccnc(NCCNC(=O)Nc3ccccc3)n2)c1 ?
Data returned: 99

Data request: Same thing, different molecule: O=C(NCCNc1nccc(-c2c(-c3cccc(O)c3)nc3sccn23)n1)c1ccc(N2CCOCC2)c(C(F)(F)F)c1
Data returned: 66.4

Data request: One more molecule: O=C(NCCNc1nccc(-c2c(-c3cccc(O)c3)nc3sccn23)n1)c1cc(C(F)(F)F)cc(C(F)(F)F)c1
Data returned: 96.3

Data request: Same thing, different molecule: COc1cccc(-c2nc3sccn3c2-c2ccnc(NCCNC(=O)c3cc(C(F)(F)F)cc(C(F)(F)F)c3)n2)c1
Data returned: 97

Data request: Could you do the same for COc1cccc(-c2nc3sccn3c2-c2ccnc(NCCNC(=O)c3ccccc3)n2)c1 , please?
Data returned: 88.5

Data request: Please answer likewise for COc1cccc(-c2nc3sccn3c2-c2ccnc(NCCNC(=O)Nc3cccc(C(F)(F)F)c3)n2)c1
Data returned: 78.6

Data request: Now the molecule O=C(NCCNc1nccc(-c2c(-c3cccc(O)c3)nc3sccn23)n1)c1cc(N2CCOCC2)cc(C(F)(F)F)c1
Data returned: 94

Data request: Would you mind doing COc1cccc(-c2nc3sccn3c2-c2ccnc(NCCNC(=O)c3cc(N4CCOCC4)cc(C(F)(F)F)c3)n2)c1 as well?
Data returned: 99.4

Data request: Further, for COc1cccc(-c2nc3sccn3c2-c2ccnc(NCCNC(=O)c3ccc(N4CCOCC4)c(C(F)(F)F)c3)n2)c1 ?
Data returned: 82.8

Data request: Could you do the same for O=C(NCCNc1nccc(-c2c(-c3cccc(O)c3)nc3sccn23)n1)Nc1ccccc1 , please?
Data returned: 92.3
